These data points were gathered from the METLIN SMRT retention time set (Domingo-Almenara et al. 2019).

Experiment: gradient 5% acetonitrile 3 min, to 50% in 2 min, to 85% in 15 min, held 3 min, 100 µL/min
Settings: column: Zorbax Extend-C18 2.1 x 50 mm; eluents: water / acetonitrile, 0.1% formic acid
I'd appreciate it if you could label each record using RP-LC retention time and these ranges: low (below 700 s), middle (700 s to below 900 s), high (900 s or more)

>  <compound>
COc1cccc(CC(=O)N2CCc3cc(-c4csc(C)n4)ccc32)c1

>  <cat>
high

$$$$
>  <compound>
O=C(Nc1cccc(Br)c1)N1CCc2nc(-c3ccc(F)cc3)ncc2C1

>  <cat>
high

$$$$
>  <compound>
COC(=O)c1cccc(N2C=C(C#N)S(=O)(=O)c3c(F)cccc32)c1

>  <cat>
middle

$$$$
>  <compound>
COc1ccc(C(=O)N2CCC[C@H]2c2nc(C(C)C)n[nH]2)c(OC)n1

>  <cat>
low

$$$$
>  <compound>
CC(C(=O)O)c1ccc2c(c1)Cc1cccnc1O2 (centres undefined)

>  <cat>
middle

$$$$
>  <compound>
COc1ccc(C(=O)N2C[C@@H]3C[C@H]2C[C@@H]3NC(=O)c2cccs2)cn1

>  <cat>
low

$$$$
>  <compound>
O=C(NCCCN1CCOCC1)C1CCCN(c2ncnc3c2nc2n3CCCCC2)C1 (centres undefined)

>  <cat>
low

$$$$
>  <compound>
CCOc1ccccc1NC(=O)C1CCCN(c2nc3c(s2)c(C)nn3-c2ccc(C)cc2)C1 (centres undefined)

>  <cat>
high

$$$$
>  <compound>
COc1ccc(N2CCN(C(=O)C3CCN(c4cncnc4N(C)C)CC3)CC2)cc1

>  <cat>
low

$$$$
>  <compound>
CCOC(=O)CNC(=O)N1CCCC1c1ccc(Cl)cc1 (centres undefined)

>  <cat>
middle

$$$$
>  <compound>
Cc1ccc(NC(=O)c2cn(C)nc2S(=O)(=O)N2CCSCC2)cc1Cl

>  <cat>
high

$$$$
>  <compound>
O=c1ccn(-c2ccc(Cl)cc2)nc1-c1nc(-c2ccccc2OCc2ccccc2)no1

>  <cat>
middle

$$$$
>  <compound>
Cn1cnc(S(=O)(=O)N2CCC(Cc3nncn3-c3ccccc3)CC2)c1

>  <cat>
low

$$$$
>  <compound>
CCN(CC)C(=O)c1ccc(-c2nc3cc(NS(=O)(=O)c4ccc(Cl)cc4)ccc3n2C)cc1

>  <cat>
middle

$$$$
>  <compound>
Clc1ccc(CSc2cc(Cl)ncn2)cc1

>  <cat>
high

$$$$
>  <compound>
CC(C)(C)n1nc2c(c1NC(=O)c1nc3ccccc3s1)CSC2

>  <cat>
high

$$$$
>  <compound>
CCOCCCNC(=O)C1CCN(c2ncnc3c2oc2ccccc23)CC1

>  <cat>
low

$$$$
>  <compound>
c1ccc(-c2noc(-c3ccc(N4CCN(c5ccccn5)CC4)nc3)n2)cc1

>  <cat>
middle

$$$$
>  <compound>
CC1CCN(c2ncc(NC(=O)c3ccc(Br)cc3)cc2C(=O)O)CC1

>  <cat>
middle

$$$$
>  <compound>
O=S(=O)(c1ccc(-c2nnc(C3CCC3)o2)o1)N1CCN(c2ccccc2)CC1

>  <cat>
high

$$$$
>  <compound>
CCOc1ccccc1NC(=O)NCCn1c(C(F)(F)F)nc2cccnc21

>  <cat>
middle

$$$$
>  <compound>
O=C1NC(=O)C2(CCc3ccccc32)N1 (centres undefined)

>  <cat>
low

$$$$
>  <compound>
CCc1ccccc1NC(=O)Cn1nc2c(Oc3cc(C)cc(C)c3)nccn2c1=O

>  <cat>
high

$$$$
>  <compound>
CC(=O)c1c(N(C)CCO)nc2ccc(Cl)cc2c1-c1ccccc1

>  <cat>
middle

$$$$
>  <compound>
Cc1noc(-c2ccnc(-n3ncc(C(=O)N4CCN(Cc5ccccc5)CC4)c3C)c2)n1

>  <cat>
low

$$$$
>  <compound>
CCNC(=O)c1ccc(-c2nc3cc(NS(=O)(=O)c4cccs4)ccc3n2C)cc1

>  <cat>
low

$$$$
>  <compound>
Cc1ccc(-c2nc3n(CC(=O)N4CCCCC4C)c4c(c(=O)n3n2)CCC4)cc1 (centres undefined)

>  <cat>
high

$$$$
>  <compound>
Cc1cc2c3ccccc3ncn2n1

>  <cat>
middle

$$$$
>  <compound>
Cc1ccn(-c2ccc(Nc3ccc(NC(=O)c4ccc(Br)o4)cc3)nn2)n1

>  <cat>
middle

$$$$
>  <compound>
Cc1ccc(CNC(=O)Cn2nc3cc(-c4ccccc4)nc(C)n3c2=O)cc1

>  <cat>
high

$$$$
>  <compound>
CCCCN1C(=O)C(C)(C(=O)Nc2ccc(F)c(F)c2)Oc2cccnc21 (centres undefined)

>  <cat>
high

$$$$
>  <compound>
O=C(NC1CCCC1)c1nc2ccccn2c1-c1ccc(F)cc1

>  <cat>
middle

$$$$
>  <compound>
CNc1nc(NC(C)C)nc(-n2cnc(SC)n2)n1

>  <cat>
middle

$$$$
>  <compound>
Cc1ccc(-c2cc3c4nnc(SCC(=O)Nc5ccccc5C(F)(F)F)n4ccn3n2)cc1C

>  <cat>
high

$$$$
>  <compound>
CCCCC(SC1=Nc2ccccc2C2=NC(Cc3c[nH]c4ccccc34)C(=O)N12)C(=O)OCC (centres undefined)

>  <cat>
high

$$$$
>  <compound>
O=C(CCCN1C(=O)c2cccc3cccc(c23)C1=O)Nc1ccon1

>  <cat>
middle

$$$$

---

Experiment: gradient 5% acetonitrile 3 min, to 50% in 2 min, to 85% in 15 min, held 3 min, 100 µL/min
Details: column: Zorbax Extend-C18 2.1 x 50 mm; eluents: water / acetonitrile, 0.1% formic acid
Catalogue of compounds with associated RP-LC retention time
endpoint: RP-LC retention time (s)

>  <compound>
Cc1ccc2c(c1)N(Cc1ccc(Cl)cc1)N=C(C(=O)N1CCOCC1)S2(=O)=O

>  <obs_value>
896

$$$$
>  <compound>
Cc1cc(C)n(-c2nc(CC(=O)Nc3ccccc3F)cs2)n1

>  <obs_value>
961

$$$$
>  <compound>
CN(C)c1cccc(C(=O)Nc2ccc(-c3nnc4n3CCCC4)cc2)c1

>  <obs_value>
736

$$$$
>  <compound>
CCCCOc1ccc(C(=O)NCc2ccco2)cc1

>  <obs_value>
865

$$$$
>  <compound>
CCC1CCCCN1C(=O)CSc1n[nH]c(-c2ccccc2)n1 (stereo not given)

>  <obs_value>
819

$$$$
>  <compound>
CCOC(=O)c1ccc2nc(NC(=O)C3CCCCN3S(C)(=O)=O)sc2c1 (stereo not given)

>  <obs_value>
839

$$$$
>  <compound>
Cc1cc(C2CCCN2C(=O)Nc2ccccc2Br)on1 (stereo not given)

>  <obs_value>
867

$$$$
>  <compound>
CCN1CCCn2cc(S(=O)(=O)Nc3ccc(C)cc3F)cc2C1=O

>  <obs_value>
729

$$$$
>  <compound>
COc1ccc(CCNC(=O)C2CCc3nc(N4CCCCC4)ncc3C2)cc1OC (stereo not given)

>  <obs_value>
702

$$$$
>  <compound>
Cc1ccc2c(c1)C(C)(C)C(=O)N2CC(=O)N1CCN(c2ncccn2)CC1

>  <obs_value>
773

$$$$
>  <compound>
CC(=O)c1cccc(NC(=O)CN2C(=O)NC3(CCC(C)CC3)C2=O)c1 (stereo not given)

>  <obs_value>
746

$$$$
>  <compound>
O=C(Cc1c[nH]c2ccccc12)NC1CCN(c2cc(-c3ccc(Cl)cc3)[nH]n2)C1 (stereo not given)

>  <obs_value>
743

$$$$
>  <compound>
O=C(c1ccc(OC(F)(F)F)cc1)N1C[C@@H]2C[C@H]1C[C@@H]2NS(=O)(=O)c1ccccc1

>  <obs_value>
884

$$$$
>  <compound>
O=C(Nc1ccc2nc(-c3ccccc3)cc(N3CCOCC3)c2c1)NC1CCCCC1

>  <obs_value>
732

$$$$
>  <compound>
O=C(N1CCOCC1)N1CCN(S(=O)(=O)c2cccc([N+](=O)[O-])c2)CC1

>  <obs_value>
668

$$$$
>  <compound>
CC(C)(C)c1ccc(-c2noc(Cn3c(=O)n(-c4ccccc4F)c(=O)c4sccc43)n2)cc1

>  <obs_value>
1220

$$$$
>  <compound>
O=C(NCc1ccnc(N2CCSCC2)c1)Nc1ccc(Cl)cc1

>  <obs_value>
649

$$$$
>  <compound>
COCCCNC(=O)C1(C)Cn2nc(-c3ccccc3)cc2C(=O)N1Cc1cccc(OC)c1 (stereo not given)

>  <obs_value>
887

$$$$
>  <compound>
CCC(=O)Nc1ccc(CCc2nc3ccc(C(=O)NCC4CCCO4)cc3[nH]2)cc1 (stereo not given)

>  <obs_value>
592

$$$$
>  <compound>
COc1ccccc1C(=O)NC1(C(F)(F)F)C(=O)N(C2CCCC2)C(C)=C1C(C)=O (stereo not given)

>  <obs_value>
1000

$$$$

---

Experiment: gradient 5% acetonitrile 3 min, to 50% in 2 min, to 85% in 15 min, held 3 min, 100 µL/min
Settings: column: Zorbax Extend-C18 2.1 x 50 mm; eluents: water / acetonitrile, 0.1% formic acid
Entries and their measured RP-LC retention time follow.
endpoint: RP-LC retention time

>  <compound>
CN(C)CC1CN(C(=O)c2c[nH]c3ccccc23)CC12CCOCC2 (stereo not given)

>  <obs_value>
725 s

$$$$
>  <compound>
C#Cc1cccc(Nc2ncnc3cc(OCCOC)c(OCCO)cc23)c1

>  <obs_value>
663 s

$$$$
>  <compound>
O=C(NCc1cccs1)C1CCN(Cc2cc3ccccc3n2Cc2cccc(F)c2)CC1

>  <obs_value>
779 s

$$$$
>  <compound>
COCCOC1CCOC2(CCN(C(=O)c3ccsc3)CC2)C1 (stereo not given)

>  <obs_value>
670 s

$$$$
>  <compound>
Cc1ccc(-n2c(N3CCC(C(=O)NCC(C)C)CC3)nc3ccsc3c2=O)cc1

>  <obs_value>
821 s

$$$$
>  <compound>
O=C(Nc1ccc(F)cc1F)c1c(O)c2cccnc2n(-c2cccc(F)c2)c1=O

>  <obs_value>
918 s

$$$$
>  <compound>
CN(C)S(=O)(=O)c1ccc(-c2nnc(C(=O)N3CCC4(CC3)OCCO4)o2)cc1

>  <obs_value>
746 s

$$$$
>  <compound>
CC(C)CN1CC(c2nc(-c3ccccc3)no2)C2(CCCC2)C1 (stereo not given)

>  <obs_value>
763 s

$$$$
>  <compound>
Cc1cc(C)cc(NS(=O)(=O)c2cc3n(c2)CCN(C)C3=O)c1

>  <obs_value>
727 s

$$$$
>  <compound>
CNC(=O)c1c(C)c(-c2ccccc2)n(C)c1C

>  <obs_value>
812 s

$$$$
>  <compound>
COc1ccc(-c2noc(N3CCC(C(=O)NC4CC4)CC3)n2)cc1OC

>  <obs_value>
690 s

$$$$
>  <compound>
COc1cc(-c2nc3ccc(Cl)cn3c2Nc2ccc3c(c2)OCO3)ccc1O

>  <obs_value>
679 s

$$$$
>  <compound>
O=C(CC1CCCCC1)Nc1cccc(-c2nnc3n2CCCC3)c1

>  <obs_value>
731 s

$$$$
>  <compound>
CCNc1nc(C)cc(N2CCN(C(=O)Nc3cc(OC)ccc3OC)CC2)n1

>  <obs_value>
626 s

$$$$
>  <compound>
O=C(Nc1cc(Cl)ccc1F)c1cnc(-c2ccccc2)nc1-c1ccncc1

>  <obs_value>
976 s

$$$$
>  <compound>
Cn1c(=O)oc2cc(-c3noc(CCc4ccccc4)n3)ccc21

>  <obs_value>
1030 s

$$$$
>  <compound>
Cc1ccc(N(C)S(=O)(=O)c2cc(-c3[nH]ncc3C(=O)N3CCCC3)oc2C)cc1

>  <obs_value>
776 s

$$$$
>  <compound>
O=C(Nc1ccc(-c2nc(-c3ccccc3)co2)cc1)C1CCCCC1

>  <obs_value>
1210 s

$$$$
>  <compound>
Cc1noc(-c2ccc(-n3ncc(C(=O)N4CCCC4)c3C)nc2)n1

>  <obs_value>
699 s

$$$$
>  <compound>
CC1(C)CC(=O)c2c(O)cc(OCC(=O)N3CCN(c4ccc(Cl)cc4)CC3)cc2O1

>  <obs_value>
1050 s

$$$$
